target: Sialidase-2 (Homo sapiens, UniProt Q9Y3R4)
Sequence (Q9Y3R4 whole entry): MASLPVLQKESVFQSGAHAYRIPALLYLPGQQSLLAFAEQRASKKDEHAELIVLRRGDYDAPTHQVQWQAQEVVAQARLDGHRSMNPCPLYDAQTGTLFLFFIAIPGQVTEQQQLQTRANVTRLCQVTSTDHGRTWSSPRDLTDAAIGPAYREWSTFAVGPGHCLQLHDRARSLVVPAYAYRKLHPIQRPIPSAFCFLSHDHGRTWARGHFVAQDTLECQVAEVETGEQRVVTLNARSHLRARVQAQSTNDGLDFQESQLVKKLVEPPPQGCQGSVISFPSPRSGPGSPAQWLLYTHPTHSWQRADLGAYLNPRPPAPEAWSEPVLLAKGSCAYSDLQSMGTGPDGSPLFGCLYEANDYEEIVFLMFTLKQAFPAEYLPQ
protocolDescription: Inhibition of human Neu2 assessed as MuNANA substrate hydrolysis in presence of 0.1% Triton X-100 by discontinuous fluorimetric assay
Rule: measured IC50 below 600 µM gets true; anything equal to or greater than 600 µM gets false.

{"columns": ["compound", "qualitativeLabel"],
 "data": [
  ["O=C(O)c1ccc2c(c1)C(=O)c1ccccc1C2=O", "false"],
  ["O=C(O)c1cc(O)c2c(c1)C(=O)c1cccc(O)c1C2=O [RHEIN]", "true"],
  ["O=c1cc(-c2ccc(O)cc2)oc2cc(O)c(O)c(O)c12 [SCUTELLAREIN]", "true"],
  ["Cc1cc(O)c2c(c1)C(=O)c1cc(O)cc(O)c1C2=O [EMODIN]", "false"],
  ["O=c1cc(-c2ccccc2O)oc2cc(O)cc(O)c12", "true"],
  ["Oc1cc(O)c2c(c1)O[C@@H](c1ccc(O)c(O)c1)[C@H](O)C2 [(-)-CATECHIN]", "false"],
  ["O=c1cc(-c2ccccc2)oc2cc(O)c(O)c(O)c12 [BAICALEIN]", "true"],
  ["O=c1cc(-c2ccc(O)cc2)oc2cccc(O)c12", "false"],
  ["O=c1cc(-c2ccc(O)cc2)oc2cc(O)cc(O)c12 [APIGENIN]", "true"]
]}

====

Property: pIC50; scope: individual molecules
target: Sialidase-2 (Homo sapiens)
protocolDescription: Inhibition of human Neu2 assessed as MuNANA substrate hydrolysis in presence of 0.1% Triton X-100 by discontinuous fluorimetric assay
pIC50: −log10 of the molar value.
propertyMeasured: pIC50

{"columns": ["molecule", "comparator", "reportedMeasurement"],
 "data": [
  ["COc1cc(O)c2c(c1)O[C@H](c1ccc(O)cc1)CC2=O", "=", 3.05],
  ["O=c1cc(-c2ccc(O)cc2)oc2cc(O)ccc12", "=", 3.33],
  ["O=c1cc(-c2ccc(O)c(O)c2)oc2cc(O)cc(O)c12", "=", 3.89],
  ["O=c1c(O)c(-c2cc(O)c(O)c(O)c2)oc2cc(O)cc(O)c12", "=", 3.82],
  ["O=c1c(-c2ccc(O)cc2)coc2cc(O)cc(O)c12", "=", 3.42],
  ["O=c1cc(-c2ccccc2)oc2cccc(O)c12 [5-HYDROXYFLAVONE]", "<", 3.00],
  ["O=C1c2cccc(O)c2C(=O)c2c(O)cccc21", "<", 3.00],
  ["O=c1c(O)c(-c2ccc(O)cc2)oc2cc(O)cc(O)c12", "=", 3.64],
  ["O=c1cc(-c2cc(O)c(O)c(O)c2)oc2cc(O)cc(O)c12", "=", 3.89],
  ["O=c1c(O)c(-c2ccc(O)c(O)c2)oc2cc(O)cc(O)c12", "=", 3.80],
  ["COc1ccc(-c2cc(=O)c3c(O)cc(O)cc3o2)cc1", "<", 3.00],
  ["O=c1cc(-c2ccccc2)oc2cc(O)cc(O)c12", "=", 3.05],
  ["COc1cc(O)c2c(=O)cc(-c3ccc(O)cc3)oc2c1", "<", 3.00]
]}

====

protocolDescription: Inhibition of Trypanosoma cruzi trans-sialidase containing catalytic domain (N58F, R200K) and lectin-like domain (S495 K, V496G, E520K, D593G, I597D, H599R) mutation expressed in Escherichia coli JM109 assessed as MuNANA substrate hydrolysis in presence of 0.1% Triton X-100 by discontinuous fluorimetric assay
propertyMeasured: IC50

{"columns": ["compound", "reportedMeasurement"],
 "data": [
  ["Cc1cc(O)c2c(c1)C(=O)c1cc(O)cc(O)c1C2=O", "110 µM"],
  ["O=c1cc(-c2ccc(O)cc2)oc2cc(O)cc(O)c12", "78 µM"],
  ["O=c1c(O)c(-c2ccc(O)c(O)c2)oc2cc(O)cc(O)c12", "58 µM"],
  ["O=C(O)c1cc(O)c2c(c1)C(=O)c1cc(O)c(Cl)c(O)c1C2=O", "0.58 µM"],
  ["O=c1cc(-c2ccccc2)oc2cccc(O)c12 [5-HYDROXYFLAVONE]", "> 1000 µM"]
]}
